Hey, just so you know, these numbers are from PubChem BioAssay (NCI).

tested on: NCI-H226 lung; assay: NCI tumour cell line growth inhibition, 48 h
So I've got a bunch of compounds here, and I need their GI50 values.

Task item: Look up and report measured GI50 for this entry: Cn1cccc1-c1cc(-c2ccc(Br)cc2)nc(N)c1C#N
Reply: 63.8 µM

Task item: Look up and report measured GI50 for this entry: COc1ccccc1Nc1nc(-c2cc3cccc(C(F)(F)F)c3oc2=O)cs1
Reply: 0.601 µM

Task item: Look up and report measured GI50 for this entry: CCCNc1nc(-c2ccc(OC)cc2)nc2ccccc12
Reply: 16.1 µM

Task item: Look up and report measured GI50 for this entry: CN1CCN(c2ccc3nc(-c4ccc(OCCCN5C(=O)c6cccc7cccc(c67)C5=O)cc4)[nH]c3c2)CC1
Reply: 19.8 µM

Task item: Look up and report measured GI50 for this entry: C=C1C(=O)O[C@H]2[C@H]1CC/C(Cn1cc(CCC)nn1)=C\CC[C@@]1(C)O[C@@H]21
Reply: 12.6 µM

Task item: Look up and report measured GI50 for this entry: O=C1c2cccc3cccc(c23)C(=O)N1CCCCOc1ccc(-c2nc3ccc(N4CCOCC4)cc3[nH]2)cc1
Reply: 25.6 µM

Task item: Look up and report measured GI50 for this entry: Cc1ccc(Cl)cc1Nc1nc(C(F)(F)F)ccc1C(=O)Oc1ccc(Cl)cc1
Reply: 12.1 µM

Task item: Look up and report measured GI50 for this entry: Cn1c2ccccc2c2c3c(c4c5ccccc5n(CCCCCC#N)c4c21)C(=O)N(O)C3=O
Reply: 1.6 µM

Task item: Look up and report measured GI50 for this entry: COc1ccc2c(CNCCCCO)cc3cc4c(cc3c2c1)OCO4
Reply: 0.638 µM

Task item: Look up and report measured GI50 for this entry: Cc1nc2cc(O)c(O)cc2cc1Oc1ccc(NC(=O)Nc2ccc(Cl)c(Cl)c2)cc1
Reply: 11.8 µM

====

test system: SF-539 CNS; assay: NCI tumour cell line growth inhibition, 48 h; in the data active = GI50 below about 0.43 µM; inactive = the rest
Bench note: report the call from active, inactive

Task item: What outcome does the record of this test show for N#Cc1c2ccccc2c2nnc3cc(Cl)c(Cl)cc3n12 ?
Reply: inactive

Task item: What outcome does the record of this test show for CC(C)[C@]12O[C@H]1[C@@H]1O[C@]13[C@]1(O[C@H]1C[C@H]1c4c(C(=O)c5ccccc5)oc(OC(=O)c5ccccc5)c4CC[C@@]13C)[C@@H]2O ?
Reply: active

Task item: What outcome does the record of this test show for COc1ccc(C2CC(c3cc(OC)c(OC)c(OC)c3)=NN2)cc1 (configuration not stated) ?
Reply: inactive

Task item: What outcome does the record of this test show for CCN1C(=O)N(c2c(F)c(OC)cc(OC)c2F)Cc2cnc3[nH]c(CN4CCOCC4)cc3c21 ?
Reply: inactive

Task item: What outcome does the record of this test show for NC(=O)NC(=O)CI ?
Reply: inactive

Task item: What outcome does the record of this test show for O=C1c2cc3c(cc2-c2c1c1ccc([N+](=O)[O-])cc1c(=O)n2CCCCl)OCO3 ?
Reply: active

Task item: What outcome does the record of this test show for C[n+]1c2ccccc2c(NC2CCNCC2)c2[nH]c3ccccc3c21 ?
Reply: inactive

Task item: What outcome does the record of this test show for CC(C)(C)CC(C)(C)Cc1ccc(OCCOCC[N+](C)(C)Cc2ccccc2)cc1 ?
Reply: inactive

Task item: What outcome does the record of this test show for COc1cc2c(/C=C3\C(=O)Nc4ccc(Br)cc43)c(Cl)n(C)c2cc1C ?
Reply: inactive

Task item: What outcome does the record of this test show for CC1=C(C)C(=O)C(C(C)C2=C(C)C(=O)C(C)=C(C)C2=O)=C(C)C1=O ?
Reply: inactive

Task item: What outcome does the record of this test show for CSC(=S)N/N=C(\C)c1ccccn1 ?
Reply: active

Task item: What outcome does the record of this test show for C=C1C(=O)O[C@H]2[C@H]1CC/C(Cn1cc(CCC)nn1)=C\CC[C@@]1(C)O[C@@H]21 ?
Reply: inactive

====

test system: OVCAR-3 ovarian; assay: NCI tumour cell line growth inhibition, 48 h
Observed Property: log10(TGI) (log10 of the value in µM)
Note the log scale: values are log10 of TGI expressed in µM.

Task item: Look up and report measured log10(TGI) for this entry: O=C1c2cccnc2-c2nc(-c3ccc([N+](=O)[O-])cc3)cc3c2c1nc1ccccc13
Reply: 0.24

Task item: Look up and report measured log10(TGI) for this entry: COC(=O)c1ccc(/C=C/C2=CC(=O)C=CC2=O)cc1
Reply: 1.58

Task item: Look up and report measured log10(TGI) for this entry: COc1cc(-c2ccc(-c3ccc(C(=N)N)s3)s2)cc(OC)c1OC
Reply: 0.67

Task item: Look up and report measured log10(TGI) for this entry: COCOc1cc(OC)ccc1C=O
Reply: 1.80

Task item: Look up and report measured log10(TGI) for this entry: COC(=O)c1c(C)nc(C)c(N=O)c1-c1ccccc1C(F)(F)F
Reply: 1.50

====

tested on: CCRF-CEM leukemia; assay: NCI tumour cell line growth inhibition, 48 h; in the data active means GI50 below about 0.43 µM; inactive means the rest
Bench note: report the call from active, inactive

Task item: What outcome does the record of this test show for NC(N)=Nc1ccc(-n2nc(C(F)(F)F)cc2-c2ccc3c(ccc4ccccc43)c2)cc1 ?
Reply: inactive

Task item: What outcome does the record of this test show for Cn1c(=O)c(Cc2ccc(F)cc2F)cc2cnc(NC3CCOCC3)nc21 ?
Reply: inactive

Task item: What outcome does the record of this test show for Cc1c2c(nn1-c1ccc(S/N=C3\SCC(=O)CN3c3ccccc3)cc1)-c1ccccc1CC2 ?
Reply: inactive

Task item: What outcome does the record of this test show for Cc1ccc(Cl)cc1Nc1nc(C(F)(F)F)ccc1C(=O)Oc1ccc(Cl)cc1 ?
Reply: inactive

Task item: What outcome does the record of this test show for Cn1c2ccccc2c2c3c(c4c5ccccc5n(CCCCCC#N)c4c21)C(=O)N(O)C3=O ?
Reply: active

Task item: What outcome does the record of this test show for O=Nc1c(-c2cccc([N+](=O)[O-])c2)nc2ncccn12 ?
Reply: inactive

Task item: What outcome does the record of this test show for Cc1ccc(/C=C2\CCOC2=O)cc1 ?
Reply: inactive

Task item: What outcome does the record of this test show for C=C1C(=O)O[C@H]2[C@H]1CC/C(COC(=O)CCC(=O)OC/C1=C/CC[C@@]3(C)O[C@H]3[C@H]3OC(=O)C(=C)[C@@H]3CC1)=C\CC[C@@]1(C)O[C@@H]21 ?
Reply: active

Task item: What outcome does the record of this test show for CNCCNc1nc2ccccc2c2c(=O)c3cccc(OC)c3sc12 ?
Reply: inactive

Task item: What outcome does the record of this test show for CC(CN(CP(=O)([O-])[O-])CP(=O)([O-])[O-])N(CP(=O)([O-])[O-])CP(=O)([O-])[O-].N[C@@H]1CCCC[C@@H]1N.[Pt+2] (stereo unspecified) ?
Reply: inactive

Task item: What outcome does the record of this test show for CC1SC(c2cccs2)N(NC(=O)C(O)c2ccccc2)C1=O (stereo unspecified) ?
Reply: inactive

Task item: What outcome does the record of this test show for CCCNc1nc(-c2ccc(OC)cc2)nc2ccccc12 ?
Reply: inactive

Task item: What outcome does the record of this test show for O=Cc1ccc(C(F)(F)F)cc1.[C-]#[O+].[C-]#[O+].[C-]#[O+].[Cr] ?
Reply: inactive

Task item: What outcome does the record of this test show for CCOc1ccc2c(c1)/C(=C\C=C\C1CC(C)C3CC(OCC)CCC3N1CC)CC(C)N2CC (stereo unspecified) ?
Reply: inactive

Task item: What outcome does the record of this test show for C[n+]1c2ccccc2c(NC2CCNCC2)c2[nH]c3ccccc3c21 ?
Reply: inactive

Task item: What outcome does the record of this test show for COc1cc(/C=C/C(=O)c2ccc(Nc3nc(Nc4ccc(F)cc4)nc(Nc4ccc(F)cc4)n3)cc2)cc(OC)c1OC ?
Reply: inactive

====

system: OVCAR-4 ovarian; test: NCI tumour cell line growth inhibition, 48 h; in the data active = GI50 below about 0.43 µM; inactive = the rest
Bench note: report the call from active, inactive

Task item: What outcome does the record of this test show for COC(=O)c1oc2c(C(=O)/C=C/c3ccc(OC)cc3)c(OCCCN3CCCCC3)ccc2c1C ?
Reply: inactive

Task item: What outcome does the record of this test show for C[n+]1c2ccccc2c(NC2CCNCC2)c2[nH]c3ccccc3c21 ?
Reply: active

Task item: What outcome does the record of this test show for O=C(Nc1ccccc1Cl)c1ccc(NC2=C(Cl)C(=O)N(Cc3ccccc3)C2=O)cc1 ?
Reply: inactive

Task item: What outcome does the record of this test show for Fc1ccc(Nc2nc(Nc3ccc(-c4nc5ccccc5[nH]4)cc3)nc(N3CCCC3)n2)cc1 ?
Reply: inactive

Task item: What outcome does the record of this test show for CCCNc1nc(-c2ccc(OC)cc2)nc2ccccc12 ?
Reply: inactive

Task item: What outcome does the record of this test show for O=C1c2cc3c(cc2-c2c1c1ccc([N+](=O)[O-])cc1c(=O)n2CCCCl)OCO3 ?
Reply: inactive

Task item: What outcome does the record of this test show for COc1cc2c(/C=C3\C(=O)Nc4ccc(Br)cc43)c(Cl)n(C)c2cc1C ?
Reply: inactive

Task item: What outcome does the record of this test show for Nc1nc(Cl)nc2c1ncn2C1O[C@H](CO)[C@@H](O)[C@@H]1F (stereo partly drawn) ?
Reply: inactive
